target-or-system: biotinylated CD59 (Homo sapiens)
Construct: Recombinant soluble human CD59 with an additional C-terminal cysteine residue
Sequence (P13987 26-102 limits assumed): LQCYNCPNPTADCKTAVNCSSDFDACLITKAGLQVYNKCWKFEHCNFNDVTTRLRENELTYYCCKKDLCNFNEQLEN
test-description: mRNA-display cyclic peptide screen against CD59-biotin, NGS abundance after 6th selection round
applied-conditions: NGS sample Seq I, sheet R6 (6th selection round)
Lab note - cut at 50 for Counts (raw counts for peptide sequence), Seq I: label 1 if strictly below, label 0 if not.

**Q:** Problem: For the sequence FVTGNRDHTRE , is Counts (raw counts for peptide sequence), Seq I under 50?
**A:** label 1

**Q:** Problem: For the sequence YSCPDWVRGSRT , is Counts (raw counts for peptide sequence), Seq I under 50?
**A:** label 1

**Q:** Problem: For the sequence CIRGTPTTV , is Counts (raw counts for peptide sequence), Seq I under 50?
**A:** label 0

**Q:** Problem: For the sequence SAWGNRQIQHY , is Counts (raw counts for peptide sequence), Seq I under 50?
**A:** label 0

**Q:** Problem: For the sequence CLRRSFLDNAGV , is Counts (raw counts for peptide sequence), Seq I under 50?
**A:** label 0

**Q:** Problem: For the sequence FARGDRNHQFY , is Counts (raw counts for peptide sequence), Seq I under 50?
**A:** label 0

**Q:** Problem: For the sequence YIRGTQDTFLF , is Counts (raw counts for peptide sequence), Seq I under 50?
**A:** label 1

**Q:** Problem: For the sequence YLSGSSNFARG , is Counts (raw counts for peptide sequence), Seq I under 50?
**A:** label 1

**Q:** Problem: For the sequence CPRYVSRGFA , is Counts (raw counts for peptide sequence), Seq I under 50?
**A:** label 0

**Q:** Problem: For the sequence HVFGNKSFTRG , is Counts (raw counts for peptide sequence), Seq I under 50?
**A:** label 0

**Q:** Problem: For the sequence WRDRFDQCIL , is Counts (raw counts for peptide sequence), Seq I under 50?
**A:** label 0

**Q:** Problem: For the sequence YVFGNRSFARG , is Counts (raw counts for peptide sequence), Seq I under 50?
**A:** label 1

**Q:** Problem: For the sequence HCWVRGSRNHT , is Counts (raw counts for peptide sequence), Seq I under 50?
**A:** label 0

**Q:** Problem: For the sequence SVRGDLYSVLG , is Counts (raw counts for peptide sequence), Seq I under 50?
**A:** label 0

**Q:** Problem: For the sequence HCRVRGSRNYT , is Counts (raw counts for peptide sequence), Seq I under 50?
**A:** label 1

**Q:** Problem: For the sequence SAWGNRYIAYY , is Counts (raw counts for peptide sequence), Seq I under 50?
**A:** label 1

**Q:** Problem: For the sequence FARGDWNHQFY , is Counts (raw counts for peptide sequence), Seq I under 50?
**A:** label 0

**Q:** Problem: For the sequence HVFGNRPFTRG , is Counts (raw counts for peptide sequence), Seq I under 50?
**A:** label 0

**Q:** Problem: For the sequence HVFGNRSYTRG , is Counts (raw counts for peptide sequence), Seq I under 50?
**A:** label 1

**Q:** Problem: For the sequence LLGARDYVRLWH , is Counts (raw counts for peptide sequence), Seq I under 50?
**A:** label 1

---

target-or-system: biotinylated CD59 (Homo sapiens)
Construct: Recombinant soluble human CD59 with an additional C-terminal cysteine residue
Sequence (P13987 26-102 limits assumed): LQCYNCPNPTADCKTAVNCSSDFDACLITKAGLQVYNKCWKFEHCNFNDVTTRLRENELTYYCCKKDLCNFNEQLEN
test-description: mRNA-display cyclic peptide screen against CD59-biotin, NGS abundance after 6th selection round
applied-conditions: average of Seq I and Seq II, sheet R6
Please go through the items and note down their Percentage of the pool, averaged across the two sequencing samples.
Numeric answer only, unit % assumed.

**Q:** Name the recorded Percentage of the pool, averaged across the two sequencing samples of the sequence listed here: CYGNSHAS
**A:** 0.013

**Q:** Name the recorded Percentage of the pool, averaged across the two sequencing samples of the sequence listed here: WRDRFDQCVI
**A:** 0.010

**Q:** Name the recorded Percentage of the pool, averaged across the two sequencing samples of the sequence listed here: FVRGDLYPVLG
**A:** 0.013

**Q:** Name the recorded Percentage of the pool, averaged across the two sequencing samples of the sequence listed here: FARGDRNHQFY
**A:** 0.013

**Q:** Name the recorded Percentage of the pool, averaged across the two sequencing samples of the sequence listed here: CFAKRIVALHST
**A:** 0.014

**Q:** Name the recorded Percentage of the pool, averaged across the two sequencing samples of the sequence listed here: LWGTHSYTYYRP
**A:** 0.011

**Q:** Name the recorded Percentage of the pool, averaged across the two sequencing samples of the sequence listed here: YSSGSRHWTRS
**A:** 0.015

**Q:** Name the recorded Percentage of the pool, averaged across the two sequencing samples of the sequence listed here: CFRNRIDLIS
**A:** 0.011

**Q:** Name the recorded Percentage of the pool, averaged across the two sequencing samples of the sequence listed here: KWGSSFFTLYRV
**A:** 0.010

**Q:** Name the recorded Percentage of the pool, averaged across the two sequencing samples of the sequence listed here: IARGGRHFSSG
**A:** 0.010

**Q:** Name the recorded Percentage of the pool, averaged across the two sequencing samples of the sequence listed here: CFAARLSNGDT
**A:** 0.016

**Q:** Name the recorded Percentage of the pool, averaged across the two sequencing samples of the sequence listed here: DYNRIVWGRGNAAAAAAARTGGG
**A:** 0.017

**Q:** Name the recorded Percentage of the pool, averaged across the two sequencing samples of the sequence listed here: FVRGDLYSVLS
**A:** 0.010

**Q:** Name the recorded Percentage of the pool, averaged across the two sequencing samples of the sequence listed here: SAWGNRKIQYY
**A:** 0.012

**Q:** Name the recorded Percentage of the pool, averaged across the two sequencing samples of the sequence listed here: CSRLTSRGWT
**A:** 0.013

**Q:** Name the recorded Percentage of the pool, averaged across the two sequencing samples of the sequence listed here: ISGGRNWRAG
**A:** 0.014

**Q:** Name the recorded Percentage of the pool, averaged across the two sequencing samples of the sequence listed here: CYTYRSLDPQSV
**A:** 0.015

**Q:** Name the recorded Percentage of the pool, averaged across the two sequencing samples of the sequence listed here: VYGSRYASIPFC
**A:** 0.016

**Q:** Name the recorded Percentage of the pool, averaged across the two sequencing samples of the sequence listed here: CYSLRLGPETV
**A:** 0.011

**Q:** Name the recorded Percentage of the pool, averaged across the two sequencing samples of the sequence listed here: GYKNECHSFNW
**A:** 0.012

---

Please go through the items and note down their Percentage of the pool, Seq II.
target-or-system: biotinylated CD59 (Homo sapiens, UniProt P13987)
Construct: Recombinant soluble human CD59 with an additional C-terminal cysteine residue
Sequence (P13987 26-102 limits assumed): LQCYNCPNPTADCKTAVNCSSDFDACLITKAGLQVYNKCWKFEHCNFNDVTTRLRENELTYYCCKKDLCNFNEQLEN
test-description: mRNA-display cyclic peptide screen against CD59-biotin, NGS abundance after 6th selection round
applied-conditions: counts normalised by total counts of NGS sample Seq II, sheet R6
Numeric answer only, unit % assumed.

**Q:** Name the recorded Percentage of the pool, Seq II of the sequence listed here: CFAYRTHTTAV
**A:** 0.014

**Q:** Name the recorded Percentage of the pool, Seq II of the sequence listed here: CFAGRLTIDAAAAAAARTGGG
**A:** 0.021

**Q:** Name the recorded Percentage of the pool, Seq II of the sequence listed here: LVRGDLYSVLG
**A:** 0.016

**Q:** Name the recorded Percentage of the pool, Seq II of the sequence listed here: IARGGRHFSSG
**A:** 0.009

**Q:** Name the recorded Percentage of the pool, Seq II of the sequence listed here: CFIRRSIESGTA
**A:** 0.023

**Q:** Name the recorded Percentage of the pool, Seq II of the sequence listed here: CFAGRLTIDAA
**A:** 0.00232

**Q:** Name the recorded Percentage of the pool, Seq II of the sequence listed here: VLCHRWHVGSHR
**A:** 0.016

**Q:** Name the recorded Percentage of the pool, Seq II of the sequence listed here: YSCPDWVRGSRT
**A:** 0.014

**Q:** Name the recorded Percentage of the pool, Seq II of the sequence listed here: SWTRGNRSSVRG
**A:** 0.012

**Q:** Name the recorded Percentage of the pool, Seq II of the sequence listed here: KWGSSFFTLYRV
**A:** 0.009

**Q:** Name the recorded Percentage of the pool, Seq II of the sequence listed here: YLSGSSNFARG
**A:** 0.016

**Q:** Name the recorded Percentage of the pool, Seq II of the sequence listed here: SACGNRQIQYY
**A:** 0.014

**Q:** Name the recorded Percentage of the pool, Seq II of the sequence listed here: FVTGNRDHTSG
**A:** 0.009

**Q:** Name the recorded Percentage of the pool, Seq II of the sequence listed here: FIRGDSTSVLF
**A:** 0.014

**Q:** Name the recorded Percentage of the pool, Seq II of the sequence listed here: SWTWGNRSSVLG
**A:** 0.016

**Q:** Name the recorded Percentage of the pool, Seq II of the sequence listed here: HVYGNRSFTRG
**A:** 0.012

**Q:** Name the recorded Percentage of the pool, Seq II of the sequence listed here: HQECWARGSRE
**A:** 0.012

**Q:** Name the recorded Percentage of the pool, Seq II of the sequence listed here: RCWASGSRDWR
**A:** 0.014

**Q:** Name the recorded Percentage of the pool, Seq II of the sequence listed here: CYGNSHAS
**A:** 0.019

**Q:** Name the recorded Percentage of the pool, Seq II of the sequence listed here: HCRVRGSRNYT
**A:** 0.014

**Q:** Name the recorded Percentage of the pool, Seq II of the sequence listed here: VARGDWNHQFY
**A:** 0.016

**Q:** Name the recorded Percentage of the pool, Seq II of the sequence listed here: CFLKRDRSASI
**A:** 0.016

**Q:** Name the recorded Percentage of the pool, Seq II of the sequence listed here: FVRGDLYSVLS
**A:** 0.009

**Q:** Name the recorded Percentage of the pool, Seq II of the sequence listed here: CYGGRTFIYAWL
**A:** 0.019

**Q:** Name the recorded Percentage of the pool, Seq II of the sequence listed here: FIRGNSTSVLFAAAAAAARTGGG
**A:** 0.016

**Q:** Name the recorded Percentage of the pool, Seq II of the sequence listed here: YVRGDLYSVLG
**A:** 0.012

**Q:** Name the recorded Percentage of the pool, Seq II of the sequence listed here: DYNRIVWGRGNAAAAAAARTGGG
**A:** 0.014

**Q:** Name the recorded Percentage of the pool, Seq II of the sequence listed here: DPICTRYNDPR
**A:** 0.012

**Q:** Name the recorded Percentage of the pool, Seq II of the sequence listed here: CFSSRTSLISGV
**A:** 0.014

**Q:** Name the recorded Percentage of the pool, Seq II of the sequence listed here: ITRGSNIYAYG
**A:** 0.014

**Q:** Name the recorded Percentage of the pool, Seq II of the sequence listed here: FVTGNSDHTRG
**A:** 0.009

**Q:** Name the recorded Percentage of the pool, Seq II of the sequence listed here: CYGGRTFIYTWS
**A:** 0.009

**Q:** Name the recorded Percentage of the pool, Seq II of the sequence listed here: FVRGNRYSVLG
**A:** 0.012

**Q:** Name the recorded Percentage of the pool, Seq II of the sequence listed here: FVRGDMYSVLG
**A:** 0.014

**Q:** Name the recorded Percentage of the pool, Seq II of the sequence listed here: GRLNECHVIRP
**A:** 0.016

**Q:** Name the recorded Percentage of the pool, Seq II of the sequence listed here: LLGARDYVRLWH
**A:** 0.016

**Q:** Name the recorded Percentage of the pool, Seq II of the sequence listed here: FVRGDLNSVLG
**A:** 0.012

**Q:** Name the recorded Percentage of the pool, Seq II of the sequence listed here: TFRSRTSCGAV
**A:** 0.016

**Q:** Name the recorded Percentage of the pool, Seq II of the sequence listed here: CFTGRLTIDAV
**A:** 0.014

**Q:** Name the recorded Percentage of the pool, Seq II of the sequence listed here: FVRGDLYPVLG
**A:** 0.012

**Q:** Name the recorded Percentage of the pool, Seq II of the sequence listed here: WIYGGRHFRLS
**A:** 0.00464
